# SUBJECT OF TEST: Acetylcholinesterase (Rattus norvegicus, UniProt P37136)
# Sequence (P37136 whole entry): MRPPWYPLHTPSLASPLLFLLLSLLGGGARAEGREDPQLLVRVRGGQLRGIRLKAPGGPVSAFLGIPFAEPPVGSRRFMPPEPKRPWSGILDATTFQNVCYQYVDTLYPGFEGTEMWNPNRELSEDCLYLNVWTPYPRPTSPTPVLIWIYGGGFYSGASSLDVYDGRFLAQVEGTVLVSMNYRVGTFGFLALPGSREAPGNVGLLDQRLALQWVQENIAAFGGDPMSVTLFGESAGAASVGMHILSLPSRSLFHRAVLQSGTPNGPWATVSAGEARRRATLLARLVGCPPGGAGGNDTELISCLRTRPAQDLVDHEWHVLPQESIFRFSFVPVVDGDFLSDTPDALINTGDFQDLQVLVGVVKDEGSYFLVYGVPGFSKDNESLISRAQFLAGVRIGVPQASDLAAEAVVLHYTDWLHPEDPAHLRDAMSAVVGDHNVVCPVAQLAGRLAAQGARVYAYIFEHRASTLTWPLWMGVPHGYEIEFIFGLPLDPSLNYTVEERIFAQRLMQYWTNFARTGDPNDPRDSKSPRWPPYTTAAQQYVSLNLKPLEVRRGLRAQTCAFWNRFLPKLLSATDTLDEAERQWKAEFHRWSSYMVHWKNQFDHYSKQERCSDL
Lab note: compare IC50 with 10 µM, writing Met if less and Not met if equal or more.

Recorded results for 5 molecules are shown here.
1. CCN(C)C(=O)Oc1ccc(-c2cc(=O)c3c(O)c(O)c(O)cc3o2)cc1: Met
2. O=c1cc(-c2ccc(O)cc2)oc2cc(O)c(O)c(O)c12: Not met
3. CCN(CC)C(=O)Oc1ccc(-c2cc(=O)c3c(OC(C)=O)c(OC(C)=O)c(OC(C)=O)cc3o2)cc1: Met
4. O=C(Oc1ccc(-c2cc(=O)c3c(O)c(O)c(O)cc3o2)cc1)N1CCCC1: Not met
5. CN(C)C(=O)Oc1ccc(-c2cc(=O)c3c(O)c(O)c(O)cc3o2)cc1: Met

q: Does the reported IC50 of CC(C)N(C(=O)Oc1ccc(-c2cc(=O)c3c(O)c(O)c(O)cc3o2)cc1)C(C)C stay below 10 µM?
a: Met

q: Entry to check: O=C(Oc1ccc(-c2cc(=O)c3c(O)c(O)c(O)cc3o2)cc1)N1CCC(Cc2ccccc2)CC1
a: Not met

q: Entry to check: O=C(Oc1ccc(-c2cc(=O)c3c(O)c(O)c(O)cc3o2)cc1)N1CCOCC1
a: Not met

q: Entry to check: CCN(CC)C(=O)Oc1ccc(-c2cc(=O)c3c(O)c(OC(C)=O)c(OC(C)=O)cc3o2)cc1
a: Met

q: Entry to check: CCN(CC)C(=O)Oc1ccc(-c2cc(=O)c3c(O)c(O)c(O)cc3o2)cc1
a: Met

q: Entry to check: O=C(Oc1ccc(-c2cc(=O)c3c(O)c(O)c(O)cc3o2)cc1)N1CCCCC1
a: Not met

====

Known pIC50 of a selection of compounds
# SUBJECT OF TEST: Carboxylic ester hydrolase (Rattus norvegicus, UniProt Q9JKC1)
# Sequence (Q9JKC1 whole entry): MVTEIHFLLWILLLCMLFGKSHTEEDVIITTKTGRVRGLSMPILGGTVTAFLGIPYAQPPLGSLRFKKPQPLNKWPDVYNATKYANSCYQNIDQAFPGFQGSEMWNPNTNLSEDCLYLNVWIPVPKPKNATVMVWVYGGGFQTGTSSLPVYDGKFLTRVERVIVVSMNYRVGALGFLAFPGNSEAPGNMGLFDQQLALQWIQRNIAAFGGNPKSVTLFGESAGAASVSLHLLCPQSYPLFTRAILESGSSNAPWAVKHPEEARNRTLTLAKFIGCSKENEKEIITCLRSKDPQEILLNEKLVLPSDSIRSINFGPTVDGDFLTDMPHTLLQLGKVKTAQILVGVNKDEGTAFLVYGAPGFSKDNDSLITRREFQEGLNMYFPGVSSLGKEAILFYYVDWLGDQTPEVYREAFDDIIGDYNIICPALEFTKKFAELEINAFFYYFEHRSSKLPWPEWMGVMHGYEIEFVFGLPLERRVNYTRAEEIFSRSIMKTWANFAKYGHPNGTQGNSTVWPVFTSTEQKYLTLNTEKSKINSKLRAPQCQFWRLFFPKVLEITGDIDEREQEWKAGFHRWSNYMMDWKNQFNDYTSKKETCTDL
FYI, pIC50 means -log10 of a concentration in mol per litre.

Some compounds with recorded pIC50:
1) CCN(CC)C(=O)Oc1ccc(-c2cc(=O)c3c(O)c(OC(C)=O)c(OC(C)=O)cc3o2)cc1: 4.21
2) CN(C)C(=O)Oc1ccc(-c2cc(=O)c3c(O)c(O)c(O)cc3o2)cc1: 4.49
3) CCN(C)C(=O)Oc1ccc(-c2cc(=O)c3c(O)c(O)c(O)cc3o2)cc1: 4.52
4) CCN(CC)C(=O)Oc1ccc(-c2cc(=O)c3c(OC)c(OC)c(OC)cc3o2)cc1: 5.09

q: Can you share its pIC50? I mean this compound: CCN(CC)C(=O)Oc1ccc(-c2cc(=O)c3c(OC(C)=O)c(OC(C)=O)c(OC(C)=O)cc3o2)cc1
a: 4.30

q: Entry to check: CCN(CC)C(=O)Oc1ccc(-c2cc(=O)c3c(O)c(OC)c(OC)cc3o2)cc1
a: 4.65
